biological target: Myc proto-oncogene protein (Homo sapiens); experiment: Inhibition of human c-Myc assessed as reduction in c-Myc/Max/Ebox DNA complex formation using pre-formed complex of c-Myc and biotinylated DNA containing single Ebox-sequence followed by compound addition and further addition of his6-tagged c-Max and incubated for 2 hrs by AlphaScreen assay
Sequence (P01106 whole entry): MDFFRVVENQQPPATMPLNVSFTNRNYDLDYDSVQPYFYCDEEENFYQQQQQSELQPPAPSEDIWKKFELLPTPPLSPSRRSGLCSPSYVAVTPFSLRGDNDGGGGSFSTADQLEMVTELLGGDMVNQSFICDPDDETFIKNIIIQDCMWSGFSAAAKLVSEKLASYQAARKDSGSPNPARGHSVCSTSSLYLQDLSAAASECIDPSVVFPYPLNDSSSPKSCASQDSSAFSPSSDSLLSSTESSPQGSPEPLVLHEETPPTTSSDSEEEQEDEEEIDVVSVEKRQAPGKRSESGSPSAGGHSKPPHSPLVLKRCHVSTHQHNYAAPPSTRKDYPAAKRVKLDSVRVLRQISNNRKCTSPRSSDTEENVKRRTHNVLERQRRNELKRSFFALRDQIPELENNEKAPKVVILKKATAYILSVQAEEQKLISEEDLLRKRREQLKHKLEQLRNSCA
pIC50: −log10 of the molar value.

{"query smiles": "COCCNCCC(=O)Nc1sc2c(c1-c1nc3cc(-c4ccc(O)c(F)c4)ccc3s1)CCNC2", "pIC50": "< 5.00"}
{"query smiles": "COCCNCCC(=O)Nc1sc2c(c1-c1nc3cc(-c4cncc(C#N)c4)ccc3s1)CCNC2", "pIC50": "6.00 to 6.52"}
{"query smiles": "CNS(=O)(=O)c1cccc(-c2ccc3sc(-c4c(NC(=O)CCNCCOC)sc5c4CCNC5)nc3c2)c1", "pIC50": "6.00 to 6.52"}
{"query smiles": "COCCNCCC(=O)Nc1sc2c(c1-c1nc3cc(-c4ccc(S(=O)(=O)NC5CC5)cc4)ccc3s1)CCNC2", "pIC50": "< 5.00"}

* * *

biological target: UniProt P01106; test: Inhibition of human c-Myc assessed as reduction in c-Myc/Max/Ebox DNA complex formation using pre-formed complex of c-Myc and biotinylated DNA containing single Ebox-sequence followed by compound addition and further addition of his6-tagged c-Max and incubated for 2 hrs by AlphaScreen assay
observed property: IC50

{"query smiles": "COCCNCCC(=O)Nc1sc2c(c1-c1nc3ccc(-c4ccnc(OC)c4)cc3s1)CCNC2", "measured result": "0.3 to 1 µM"}
{"query smiles": "COCCNCCC(=O)Nc1sc2c(c1-c1nc3ccc(-c4ccc5c(c4)NC(=O)CO5)cc3s1)CCNC2", "measured result": "> 10 µM"}
{"query smiles": "CNCCC(=O)Nc1sc2c(c1-c1nc3ccccc3s1)CCN(C(C)C)C2", "measured result": "< 0.3 µM"}
{"query smiles": "COCCNCCC(=O)Nc1sc2c(c1-c1nc3cc(-c4cc(C)[nH]n4)ccc3s1)CCNC2", "measured result": "0.3 to 1 µM"}
{"query smiles": "CC(C)NCCC(=O)Nc1sc2c(c1-c1nc3cc(S(C)(=O)=O)ccc3s1)CCNC2", "measured result": "< 0.3 µM"}
{"query smiles": "COCCNCCC(=O)Nc1sc2c(c1-c1nc3ccc(-c4ccc(OC)nc4C)cc3s1)CCNC2", "measured result": "> 10 µM"}
{"query smiles": "COCCNCCC(=O)Nc1sc2c(c1-c1nc3cc(-c4ccc(C)nc4)ccc3s1)CCNC2", "measured result": "0.3 to 1 µM"}
{"query smiles": "COCCNCCC(=O)Nc1sc2c(c1-c1nc3ccc(-c4ccc(F)nc4F)cc3s1)CCNC2", "measured result": "> 10 µM"}
{"query smiles": "COCCNCCC(=O)Nc1sc2c(c1-c1nc3cc(-c4ccccc4S(C)(=O)=O)ccc3s1)CCNC2", "measured result": "> 10 µM"}

* * *

target: Myc proto-oncogene protein (Homo sapiens); experiment: Inhibition of human c-Myc assessed as reduction in c-Myc/Max/Ebox DNA complex formation using pre-formed complex of c-Myc and biotinylated DNA containing single Ebox-sequence followed by compound addition and further addition of his6-tagged c-Max and incubated for 2 hrs by AlphaScreen assay
This listing pairs molecules with measured IC50.
observed property: IC50

{"query smiles": "O=C(Nc1sc2c(c1-c1nc3ccccc3s1)CCNC2)C1CNC1", "observed property": "IC50", "measured result": "< 300 nM"}
{"query smiles": "CCOc1ccc(-c2ccc3sc(-c4c(NC(=O)CCNCCOC)sc5c4CCNC5)nc3c2)cn1", "observed property": "IC50", "measured result": "300 to 1000 nM"}
{"query smiles": "COCCNCCC(=O)Nc1sc2c(c1-c1nc3cc(-c4ccc(F)nc4)ccc3s1)CCNC2", "observed property": "IC50", "measured result": "< 300 nM"}
{"query smiles": "COCCNCCC(=O)Nc1sc2c(c1-c1nc3cc(-c4ccc(OC)c(OC)c4)ccc3s1)CCNC2", "observed property": "IC50", "measured result": "> 10000 nM"}
{"query smiles": "COCCNCCC(=O)Nc1sc2c(c1-c1nc3ccc(-c4ccc5c(c4)NC(=O)C5)cc3s1)CCNC2", "observed property": "IC50", "measured result": "1000 to 10000 nM"}
{"query smiles": "Cc1nn(C)cc1-c1ccc2sc(-c3c(NC(=O)CCNC(C)C)sc4c3CCNC4)nc2c1", "observed property": "IC50", "measured result": "< 300 nM"}
{"query smiles": "COCCNCCC(=O)Nc1sc2c(c1-c1nc3ccc(-c4cc5ccccc5[nH]4)cc3s1)CCNC2", "observed property": "IC50", "measured result": "> 10000 nM"}
{"query smiles": "COc1ccc2sc(-c3c(NC(=O)CCNC(C)C)sc4c3CCNC4)nc2c1Cl", "observed property": "IC50", "measured result": "< 300 nM"}
{"query smiles": "COCCNCCC(=O)Nc1sc2c(c1-c1nc3ccc(-c4ccccc4S(C)(=O)=O)cc3s1)CCNC2", "observed property": "IC50", "measured result": "> 10000 nM"}

* * *

target: Myc proto-oncogene protein (Homo sapiens); assay: Inhibition of human c-Myc assessed as reduction in c-Myc/Max/Ebox DNA complex formation using pre-formed complex of c-Myc and biotinylated DNA containing single Ebox-sequence followed by compound addition and further addition of his6-tagged c-Max and incubated for 2 hrs by AlphaScreen assay
pIC50: −log10 of the molar value.
This listing pairs molecules with measured pIC50.

{"query smiles": "COCCNCCC(=O)Nc1sc2c(c1-c1nc3cc(-c4cncc(C)c4)ccc3s1)CCNC2", "pIC50": "6.00 to 6.52"}
{"query smiles": "COCCNCCC(=O)Nc1sc2c(c1-c1nc3cc(-c4ccnc5[nH]ccc45)ccc3s1)CCNC2", "pIC50": "5.00 to 6.00"}
{"query smiles": "CC(C)N1CCc2c(sc(NC(=O)CCNCc3ccccc3)c2-c2nc3ccccc3s2)C1", "pIC50": "5.00 to 6.00"}
{"query smiles": "COCCNCCC(=O)Nc1sc2c(c1-c1nc3cc(-c4cccnc4OC)ccc3s1)CCNC2", "pIC50": "< 5.00"}
{"query smiles": "CC(=O)Nc1sc2c(c1-c1nc3cc(-c4cnn(C)c4)ccc3s1)CCNC2", "pIC50": "6.00 to 6.52"}
{"query smiles": "COCCNCCC(=O)Nc1sc2c(c1-c1nc3ccc(-c4ccc(C)nc4OC)cc3s1)CCNC2", "pIC50": "< 5.00"}
{"query smiles": "COCCNCCC(=O)Nc1sc2c(c1-c1nc3ccc(-c4ccccc4NC(C)=O)cc3s1)CCNC2", "pIC50": "< 5.00"}
{"query smiles": "Cc1cc(-c2ccc3sc(-c4c(NC(=O)CCNC(C)C)sc5c4CCNC5)nc3c2)n(C)n1", "pIC50": "> 6.52"}
{"query smiles": "COCCNCCC(=O)Nc1sc2c(c1-c1nc3ccc(-c4cnc(N5CCOCC5)nc4)cc3s1)CCNC2", "pIC50": "< 5.00"}
{"query smiles": "CNC(=O)Nc1ccc(-c2ccc3nc(-c4c(NC(=O)CCNCCOC)sc5c4CCNC5)sc3c2)cc1", "pIC50": "5.00 to 6.00"}
{"query smiles": "CSc1cccc2sc(-c3c(NC(=O)CCNC(C)C)sc4c3CCNC4)nc12", "pIC50": "6.00 to 6.52"}
{"query smiles": "COCCNCCC(=O)Nc1sc2c(c1-c1nc3cc(-c4ccc5ncccc5c4)ccc3s1)CCNC2", "pIC50": "< 5.00"}
{"query smiles": "COCCNCCC(=O)Nc1sc2c(c1-c1nc3ccc(-c4cc(F)cnc4OC)cc3s1)CCNC2", "pIC50": "< 5.00"}
{"query smiles": "CC(C)NCCC(=O)Nc1sc2c(c1-c1nc3cc(-c4cccnc4)ccc3s1)CCNC2", "pIC50": "> 6.52"}
{"query smiles": "COCCNCCC(=O)Nc1sc2c(c1-c1nc3cc(-c4cccnc4C)ccc3s1)CCNC2", "pIC50": "5.00 to 6.00"}
{"query smiles": "COCCNCCC(=O)Nc1sc2c(c1-c1nc3cc(-c4cccc(C(=O)N5CCN(C)CC5)c4)ccc3s1)CCNC2", "pIC50": "5.00 to 6.00"}
{"query smiles": "COCCNCCC(=O)Nc1sc2c(c1-c1nc3ccc(-c4cncc(OC)c4)cc3s1)CCNC2", "pIC50": "5.00 to 6.00"}
{"query smiles": "COCCNCCC(=O)Nc1sc2c(c1-c1nc3ccc(-c4cncc(F)c4)cc3s1)CCNC2", "pIC50": "6.00 to 6.52"}
{"query smiles": "COCCNCCC(=O)Nc1sc2c(c1-c1nc3cc(-c4ccc(OC)nc4C)ccc3s1)CCNC2", "pIC50": "< 5.00"}

Reference for the values: ChEMBL document CHEMBL4476874
